In this section, each of the compounds is paired with its reported IC50.
Experimental System: BRD4 Bromodomain 2 (BRD4 BD2) (Homo sapiens, UniProt O60885)
Construct: 333-460 were cloned, expressed, and purified to homogeneity
Assay: AlphaScreen binding assay, BRD4 BD2
Condition Details: His-tagged BRD4 BD2 100 nM, biotinylated H4 (1-21) K5/8/12/16 tetra-acetylated peptide 100 nM, compounds listed under IC50 range headings

Examples with their reported IC50 follow.
CC(=O)N1c2ccc(-c3cnn(CCO)c3)c(Oc3ncccn3)c2CC[C@@H]1C = < 50 nM
CC(=O)N1c2ccc(-c3cnn(CCO)c3)c(OCCN(C)S(C)(=O)=O)c2CC[C@@H]1C = 50 to 500 nM
C[C@H]1CCc2c(ccc(-c3cnn(C4CNC4)c3)c2Oc2ccc(F)cc2)N1C(=O)C1CC1 = < 50 nM
CC(=O)N1c2ccc(-c3ccc(OCCN(C)C)cc3)c(OCC(=O)N(C)C)c2CC[C@@H]1C = ≥ 500 nM
COC(=O)N1c2ccc(-c3cnn(C4CC4)c3)c(OCS(N)(=O)=O)c2CC[C@@H]1C = ≥ 500 nM
COC(=O)N1c2ccc(-c3cnn(CCO)c3)c(Oc3ncc(C4CC4)cn3)c2CC[C@@H]1C = 50 to 500 nM
CC(=O)N1c2ccc(-c3cnn(C4CCNCC4)c3)c(Oc3ncc(F)cn3)c2CC[C@@H]1C = < 50 nM

Prompt: Please report the recorded IC50 for COC(=O)N1c2ccc(-c3cnn(C4CCOCC4)c3)c(OC3CCC3)c2CC[C@@H]1C .
Response: < 50 nM
